Biological target: mPTPRB (Mus musculus, UniProt B2RU80)
Sequence (B2RU80 1644-1997 limits assumed): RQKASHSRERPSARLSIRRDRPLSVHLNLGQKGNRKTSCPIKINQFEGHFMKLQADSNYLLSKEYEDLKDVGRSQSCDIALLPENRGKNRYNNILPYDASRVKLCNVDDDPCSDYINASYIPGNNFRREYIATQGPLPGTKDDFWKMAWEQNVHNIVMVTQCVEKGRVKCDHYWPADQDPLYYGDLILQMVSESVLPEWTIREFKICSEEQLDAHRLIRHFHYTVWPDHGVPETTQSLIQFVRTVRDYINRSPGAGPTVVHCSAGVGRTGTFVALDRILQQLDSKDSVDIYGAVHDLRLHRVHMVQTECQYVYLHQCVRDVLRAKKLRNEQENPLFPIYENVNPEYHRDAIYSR
MEASURE_NAME: pIC50
As a rule, pIC50 stands for the negative log10 of the concentration, concentration in M.

Need pIC50 of CCOc1ccc(C(F)(F)F)cc1CSc1ccsc1C(=O)NS(=O)(=O)c1ccccc1 , thanks.
4.45
